B1: TRAF3IP2 (parent)
chain: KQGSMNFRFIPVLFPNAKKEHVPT

# Variants of: B1
# Assay procedure: protein stability index of a GFP-peptide fusion (GPS, HEK-293T) (PSI 1-6); higher = more stable;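 further: lentivirally expressed fusions sorted by FACS into six bins by GFP to DsRed ratio, PSI derived from sequencing read proportions per bin multiplied by bin number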
# Test parameters: c terminus: a fixed tail appended
Readout type: protein stability index
// no unit string in output, number only

{"Chain": "KQGSMNFRFIPVLFPNAKKEHVGT", "protein stability index": 2.15}
{"Chain": "KQGSMNFRFIPVLFPSAKKEHVPT", "protein stability index": 2.33}
{"Chain": "KQGSMEFRFIPVLFPNAKKEHVPT", "protein stability index": 2.1}
{"Chain": "KQGSMNFRFIPVLFPNAKKEHVPI", "protein stability index": 1.7}
{"Chain": "KQGSMNFRFWPVLFPNAKKEHVPT", "protein stability index": 1.97}
{"Chain": "KQGSMNFRFIPVLFPNAQKEHVPT", "protein stability index": 1.77}

Prompt: Find the recorded protein stability index belonging to KQGSMNFRFIPVLFPNAKDEHVPT and report it.
Completion: 2.13

Prompt: Find the recorded protein stability index belonging to KQGSMNFRFIPVLFPNAKKEHVFT and report it.
Completion: 1.79

meta.source: the supplement of paper PMC10567573
